Reported growth by item:
- Test system: MCF7 breast
- TEST_NAME: NCI-60 one-dose screen, 48 h (100 = growth as untreated, 0 = no growth, -100 = all killed)
- ASSAY_CONTEXT: 10 µM unless noted
About 83,000 compounds went through this panel and 20% of them were active in at least one assay; those are over-represented in the sample as a whole.
Kindly provide the numeric value in % only, without the unit symbol.

Give the measured growth of C[C@]12CC[C@H]3[C@@H](C[C@@H]4SC(Nc5ccccc5)=N[C@@]45CC(O)CC[C@]35C)[C@@H]1CCC2O (some centres undefined) .
29.2

----------
- System: RXF 393 renal
- TEST_NAME: NCI-60 one-dose screen, 48 h (100 = growth as untreated, 0 = no growth, -100 = all killed)
- ASSAY_CONTEXT: 10 µM unless noted
Compounds without any hit were thinned out: in the full panel of roughly 83,000, 20% have a hit.
Param label: returns YES when growth < 70%, returns NO otherwise, including exact equality.

Worked examples follow.
# COMPOUND, MEASUREMENT_TARGET, LABEL
rows = [
    ("C#Cc1ccc2c(c1)C(c1ccccc1F)=NCC(=O)N2C", "RXF 393 renal", "NO"),
    ("O=C1CNC(c2ccccc2)c2cc(Cl)ccc2N1 (stereo unspecified)", "RXF 393 renal", "NO"),
    ("CC(C)=CCC[C@H](C(=O)O)[C@@H]1CC[C@]2(C)C3=C(CC[C@@]12C)[C@@]1(C)CC[C@H](O)C(C)(C)[C@@H]1CC3", "RXF 393 renal", "NO"),
    ("CC(C)[C@@H]1NC(=O)[C@]2(C)CSC(=N2)c2csc(n2)CNC(=O)C[C@@H](/C=C/CCS)OC1=O", "RXF 393 renal", "YES"),
    ("O=C1CC2(CC3(Cl)C(Cl)=C(Cl)C2(Cl)C3(Cl)Cl)C(=O)O1 (stereo unspecified)", "RXF 393 renal", "NO"),
]

growth under 70%? Item: CCCC[C@H](NC(=O)[C@H]1CCCN1C)C(=O)N(C)[C@H](C[C@@H](OC(C)=O)c1nc(C(=O)N[C@@H](Cc2ccccc2)C[C@H](C)C(=O)OCC)cs1)C(C)C
YES

Subsequent entry: CC[C@H](NC(=O)[C@H]1CCCCN1C)C(=O)N(C)[C@H](C[C@@H](OC(C)=O)c1nc(C(=O)N[C@@H](Cc2ccccc2)C[C@H](C)C(=O)O)cs1)C(C)C
YES
